Recorded values, source patent US6914045B2.

Reported MIC Escherichia coli (ATCC 25922) by item:
- Tested on: Escherichia coli
- experiment: in vitro antibacterial evaluation, MIC by broth dilution
- Type: cell-based
- conditions: 18 hours at 35° C.

[
  {
    "molecule": "CCOc1cc(COCC2OC(OC3C(CO)OC(Oc4ccc(CC5NC(=O)C(C(C)c6ccccc6)NC(=O)CNC(=O)C(CO)NC(=O)C(C(O)C6CNC(=N)N6C6OC(CO)C(O)C(O)C6O)NC(=O)C(C(O)C6CNC(=N)N6)NC5=O)cc4)C(O)C3O)C(O)C(O)C2O)ccc1OC (centres unmarked) [Example 238]",
    "system": "Escherichia coli",
    "observed_value": ">64 µg/mL"
  }
]

[ask] Quick check: MIC Escherichia coli (ATCC 25922) of CC(c1ccccc1)C1NC(=O)CNC(=O)C(CO)NC(=O)C(C(O)C2CNC(=N)N2C2OC(CO)C(O)C(O)C2O)NC(=O)C(C(O)C2CNC(=N)N2)NC(=O)C(Cc2ccc(OC3OC(CO)C(OC4OC(CO)C(O)C(O)C4OCc4ccc(OCc5ccccc5)cc4)C(O)C3O)cc2)NC1=O (centres unmarked) [Example 231b] ?
[reply] >128 µg/mL

[ask] May I ask what MIC Escherichia coli (ATCC 25922) has been recorded for Cc1ccc(COCC2OC(OC3C(CO)OC(Oc4ccc(CC5NC(=O)C(C(C)c6ccccc6)NC(=O)CNC(=O)C(CO)NC(=O)C(C(O)C6CNC(=N)N6C6OC(CO)C(O)C(O)C6O)NC(=O)C(C(O)C6CNC(=N)N6)NC5=O)cc4)C(O)C3O)C(O)C(O)C2O)cc1 (centres unmarked) [Example 234] ?
[reply] 64 µg/mL

[ask] Name the recorded MIC Escherichia coli (ATCC 25922) for COc1ccc(COCC2OC(OC3C(CO)OC(Oc4ccc(CC5NC(=O)C(C(C)c6ccccc6)NC(=O)CNC(=O)C(CO)NC(=O)C(C(O)C6CNC(=N)N6C6OC(CO)C(O)C(O)C6O)NC(=O)C(C(O)C6CNC(=N)N6)NC5=O)cc4)C(O)C3O)C(O)C(O)C2O)cc1OCc1ccccc1 (centres unmarked) [Example 239] .
[reply] >64 µg/mL

[ask] Requested field: MIC Escherichia coli (ATCC 25922). Item: CC(c1ccccc1)C1NC(=O)CNC(=O)C(CO)NC(=O)C(C(O)C2CNC(=N)N2C2OC(CO)C(O)C3OC(C)(C)OC32)NC(=O)C(C(O)C2CNC(=N)N2)NC(=O)C(Cc2ccc(OC3OC(CO)C(OC4OC5COC(C)(C)OC5C5OC(C)(C)OC45)C4OC(C)(C)OC34)cc2)NC1=O (centres unmarked) [Example 229b]
[reply] >128 µg/mL

[ask] Consider the molecule shown here: CC(c1ccccc1)C1NC(=O)CNC(=O)C(CO)NC(=O)C(C(O)C2CNC(=N)N2C2OC(CO)C(O)C(O)C2O)NC(=O)C(C(O)C2CNC(=N)N2)NC(=O)C(Cc2ccc(OC3OC(CO)C(OC4OC(COCc5cccs5)C(O)C(O)C4O)C(O)C3O)cc2)NC1=O (centres unmarked) [Example 244] What is its recorded MIC Escherichia coli (ATCC 25922)?
[reply] >64 µg/mL

[ask] Report MIC Escherichia coli (ATCC 25922) for COc1ccc2cc(COCC3OC(OC4C(CO)OC(Oc5ccc(CC6NC(=O)C(C(C)c7ccccc7)NC(=O)CNC(=O)C(CO)NC(=O)C(C(O)C7CNC(=N)N7C7OC(CO)C(O)C(O)C7O)NC(=O)C(C(O)C7CNC(=N)N7)NC6=O)cc5)C(O)C4O)C(O)C(O)C3O)ccc2c1 (centres unmarked) [Example 230] please.
[reply] 64 µg/mL

[ask] Which MIC Escherichia coli (ATCC 25922) value belongs to COc1ccc2cc(COC3C(OC4C(CO)OC(Oc5ccc(CC6NC(=O)C(C(C)c7ccccc7)NC(=O)CNC(=O)C(CO)NC(=O)C(CC7CNC(=N)N7C7OC(CO)C(O)C(O)C7O)NC(=O)C(CC7CNC(=N)N7)NC6=O)cc5)C(O)C4O)OC(CO)C(O)C3O)ccc2c1 (centres unmarked) [Example 245c] ?
[reply] >128 µg/mL

[ask] State the recorded MIC Escherichia coli (ATCC 25922) for this entry: CC(c1ccccc1)C1NC(=O)CNC(=O)C(CO)NC(=O)C(C(O)C2CNC(=N)N2C2OC(CO)C(O)C(O)C2O)NC(=O)C(C(O)C2CNC(=N)N2)NC(=O)C(Cc2ccc(OC3OC(CO)C(OC4OC(COCc5ccc(OCc6ccccc6)cc5)C(O)C(O)C4O)C(O)C3O)cc2)NC1=O (centres unmarked) [Example 231]
[reply] >128 µg/mL

[ask] Could you tell me which MIC Escherichia coli (ATCC 25922) is on file for CC(c1ccccc1)C1NC(=O)CNC(=O)C(CO)NC(=O)C(C(O)C2CNC(=N)N2C2OC(CO)C(O)C(O)C2O)NC(=O)C(C(O)C2CNC(=N)N2)NC(=O)C(Cc2ccc(OC3OC(CO)C(OC4OC(CO)C(O)C(OCc5ccc(OCc6ccccc6)cc5)C4O)C(O)C3O)cc2)NC1=O (centres unmarked) [Example 231c] ?
[reply] >128 µg/mL

[ask] Quick check: MIC Escherichia coli (ATCC 25922) of CC(c1ccccc1)C1NC(=O)CNC(=O)C(CO)NC(=O)C(C(O)C2CNC(=N)N2C2OC(CO)C(O)C(O)C2O)NC(=O)C(C(O)C2CNC(=N)N2)NC(=O)C(Cc2ccc(OC3OC(CO)C(OC4OC(COCc5ccc(Oc6ccccc6)cc5)C(O)C(O)C4O)C(O)C3O)cc2)NC1=O (centres unmarked) [Example 236] ?
[reply] >64 µg/mL

[ask] // MIC Escherichia coli (ATCC 25922) lookup, key: CC(c1ccccc1)C1NC(=O)CNC(=O)C(CO)NC(=O)C(C(O)C2CNC(=N)N2C2OC(CO)C(O)C(O)C2O)NC(=O)C(C(O)C2CNC(=N)N2)NC(=O)C(Cc2ccc(OC3OC(CO)C(OC4OC(CO)C(OCc5ccc(OCc6ccccc6)cc5)C(O)C4O)C(O)C3O)cc2)NC1=O (centres unmarked) [Example 231a]
[reply] 32 to 64 µg/mL

[ask] Tell me the measured MIC Escherichia coli (ATCC 25922) of COc1ccc2cc(COC3C(OC4C(CO)OC(Oc5ccc(CC6NC(=O)C(C(C)c7ccccc7)NC(=O)CNC(=O)C(CO)NC(=O)C(C(O)C7CNC(=N)N7C7OC(CO)C(O)C(O)C7O)NC(=O)C(C(O)C7CNC(=N)N7)NC6=O)cc5)C(O)C4O)OC(CO)C(O)C3O)ccc2c1 (centres unmarked) [Example 230c] , please.
[reply] >128 µg/mL

[ask] Which MIC Escherichia coli (ATCC 25922) value is on record for CC(c1ccccc1)C1NC(=O)CNC(=O)C(CO)NC(=O)C(C(O)C2CNC(=N)N2C2OC(CO)C(O)C(O)C2O)NC(=O)C(C(O)C2CNC(=N)N2)NC(=O)C(Cc2ccc(OC3OC(CO)C(OC4OC(COCC=Cc5ccccc5)C(O)C(O)C4O)C(O)C3O)cc2)NC1=O (centres unmarked) [Example 242] ?
[reply] >64 µg/mL
